System Tested: Man(a1-3)[Man(a1-6)]Man(a1-6)[Man(a1-2)Man(a1-3)]Man(b1-4)GlcNAc(b1-4)GlcNAc
Assay Explanation: glycan array binding signal (z-score within array); higher = stronger binding
Measurement Setup: glycan notation: IUPAC condensed, linker removed
The sample as a whole holds a higher share of the strongest signals than the screen did.
Record form. Attribute: glycan array binding signal (z-score). Fill in for each entry.
# answer = number (no unit)

Field glycan array binding signal (z-score) (entry Epa3to2 (Candida glabrata) (protein) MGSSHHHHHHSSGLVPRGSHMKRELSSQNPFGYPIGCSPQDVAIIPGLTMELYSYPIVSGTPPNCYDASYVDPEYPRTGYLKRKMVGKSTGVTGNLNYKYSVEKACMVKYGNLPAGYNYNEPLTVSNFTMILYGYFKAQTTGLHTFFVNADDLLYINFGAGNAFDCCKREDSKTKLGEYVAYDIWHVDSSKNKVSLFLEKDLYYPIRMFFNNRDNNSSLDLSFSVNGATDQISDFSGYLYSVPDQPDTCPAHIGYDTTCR ) reads 3.92

Lookup result for BC2L-D C-terminal domain (Burkholderia cenocepacia), Q39MQ9_BURS3 (protein) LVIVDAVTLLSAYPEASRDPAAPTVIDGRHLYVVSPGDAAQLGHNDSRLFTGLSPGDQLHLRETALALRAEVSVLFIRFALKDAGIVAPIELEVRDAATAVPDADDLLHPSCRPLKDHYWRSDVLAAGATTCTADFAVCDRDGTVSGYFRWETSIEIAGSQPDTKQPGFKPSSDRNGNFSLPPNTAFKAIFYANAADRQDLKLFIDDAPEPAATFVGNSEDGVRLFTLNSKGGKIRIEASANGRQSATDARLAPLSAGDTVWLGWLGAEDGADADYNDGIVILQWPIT ; measured glycan array binding signal (z-score): 6.86

Entry FliC (Clostridium difficile) (protein) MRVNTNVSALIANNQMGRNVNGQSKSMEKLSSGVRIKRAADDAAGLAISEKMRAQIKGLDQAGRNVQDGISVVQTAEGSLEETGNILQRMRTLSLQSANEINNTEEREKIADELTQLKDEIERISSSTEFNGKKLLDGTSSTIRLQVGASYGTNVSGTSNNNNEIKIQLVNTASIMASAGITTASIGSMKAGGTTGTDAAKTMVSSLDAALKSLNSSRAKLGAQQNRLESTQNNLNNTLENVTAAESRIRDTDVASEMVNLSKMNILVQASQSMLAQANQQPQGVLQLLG — recorded glycan array binding signal (z-score) = 3.18

The reported glycan array binding signal (z-score) of the binder Protein L(B1-B4) (Finegoldia magna), Q51912 (protein) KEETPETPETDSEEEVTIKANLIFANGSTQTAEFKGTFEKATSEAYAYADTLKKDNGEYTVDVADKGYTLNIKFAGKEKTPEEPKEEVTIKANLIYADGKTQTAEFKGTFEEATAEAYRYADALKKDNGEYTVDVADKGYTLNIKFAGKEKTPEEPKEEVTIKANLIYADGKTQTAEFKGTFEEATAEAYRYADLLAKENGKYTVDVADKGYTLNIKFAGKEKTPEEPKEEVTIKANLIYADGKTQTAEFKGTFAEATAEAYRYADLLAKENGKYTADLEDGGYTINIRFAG was 2.94

Item: Epa23 (Candida glabrata) (protein) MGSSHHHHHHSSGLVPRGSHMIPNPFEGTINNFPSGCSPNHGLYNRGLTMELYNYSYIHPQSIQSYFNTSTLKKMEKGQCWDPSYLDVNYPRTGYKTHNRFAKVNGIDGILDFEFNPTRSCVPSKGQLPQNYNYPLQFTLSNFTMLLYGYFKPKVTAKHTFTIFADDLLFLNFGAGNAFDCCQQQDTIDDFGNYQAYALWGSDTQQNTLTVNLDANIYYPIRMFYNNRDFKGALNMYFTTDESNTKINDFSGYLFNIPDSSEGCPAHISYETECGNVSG | glycan array binding signal (z-score): -0.22

Briefly, glycan array binding signal (z-score) measured for LecB PA7 (Pseudomonas aeruginosa) (protein) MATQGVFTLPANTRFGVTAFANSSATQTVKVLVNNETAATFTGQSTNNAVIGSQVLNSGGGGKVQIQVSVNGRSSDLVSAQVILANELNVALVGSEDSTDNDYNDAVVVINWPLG : 2.3
